Data origin, for the record: patent US12612360B2

Biological target: ERα (Homo sapiens)
Construct: host or cells: MCF7
Sequence (P03372 1-595): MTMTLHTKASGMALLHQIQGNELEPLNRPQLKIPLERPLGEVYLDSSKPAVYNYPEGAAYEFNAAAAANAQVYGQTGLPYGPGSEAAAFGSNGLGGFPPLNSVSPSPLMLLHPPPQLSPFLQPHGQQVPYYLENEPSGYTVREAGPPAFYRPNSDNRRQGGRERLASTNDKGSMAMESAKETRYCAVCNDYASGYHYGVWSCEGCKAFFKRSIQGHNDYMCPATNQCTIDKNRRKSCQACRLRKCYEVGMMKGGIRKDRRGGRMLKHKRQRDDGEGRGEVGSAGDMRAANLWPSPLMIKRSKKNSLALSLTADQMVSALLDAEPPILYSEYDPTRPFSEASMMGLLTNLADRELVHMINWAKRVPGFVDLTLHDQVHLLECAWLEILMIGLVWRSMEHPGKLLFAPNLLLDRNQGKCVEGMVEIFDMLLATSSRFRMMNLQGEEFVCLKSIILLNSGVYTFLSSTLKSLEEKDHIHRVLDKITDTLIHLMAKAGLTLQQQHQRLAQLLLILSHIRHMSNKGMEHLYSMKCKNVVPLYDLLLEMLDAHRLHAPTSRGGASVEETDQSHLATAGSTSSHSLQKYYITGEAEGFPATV
Test: Estrogen receptor degradation activity: breast cancer cell ERα in cell western assay (MCF7 cells)
Assay type: cell-based
Conditions: 4 hours post compound addition, concentration which degrades 50% of the estrogen receptor, read-out: Degradation IC50
readout_name: DC50 (nM)
Answer with a number only, understood to be in nM.

DC50 reading for Cc1cc(C2=C(c3ccc(Cl)cc3Cl)CCCc3cc(C(=O)O)ccc32)cc(C)c1C=C1CN(CCCF)C1.Cl [Example 104, hydrochloride] : 4.9

DC50 reading for Cc1cc(F)ccc1C1=C(c2cc(F)c(C=C3CN(CCCF)C3)c(F)c2)c2ccc(C(=O)O)cc2CCC1 [Example 36] : 0.4

DC50 reading for O=C(O)c1ccc2c(c1)CCCC(c1cc(C(F)(F)F)ccc1F)=C2c1ccc(C=C2CN(CCCF)C2)cc1 [Example 121] : 0.7

DC50 reading for O=C(O)c1ccc2c(c1)CCCC(CCc1ccccc1)=C2c1ccc(C=C2CN(CCCF)C2)cc1 [Example 168] : 0.3

DC50 reading for Cc1cc(Cl)cc(C)c1C1=C(c2ccc(C=C3CN(CCCF)C3)cc2)c2ccc(C(=O)O)cc2CCC1 [Example 83] : 0.4

DC50 reading for Cc1c(F)cccc1C1=C(c2ccc(C=C3CN(CCCF)C3)cc2)c2ccc(C(=O)O)cc2CCC1 [Example 85] : 0.2

DC50 reading for Cc1cc(C2=C(c3ccc(Cl)cc3Cl)CCCc3cc(C(=O)O)ccc32)ccc1C=C1CN(CCCF)C1 [Example 64] : 0.3
